Test system: c-Src
procedure_summary: phosphorylation enrichment, bacterial display (enrichment ratio); higher = better substrate or ligand; peptides without Tyr show the background
recorded_metric: phosphorylation enrichment
No unit in the answer, only the number.

SGIYQYIIAKF [FOXL2_Y83] : 3.69
TVLWWYTGTRP [UGT1A1_Y337_R336W] : 0.311
LKGQVYILGLE [ASS1_Y359_R363L] : 0.633

Query string: Give phosphorylation enrichment for SFSGEYGGGGG [ZG16_Y30_YF]
Result string: 0.423

Query string: Give phosphorylation enrichment for KKCTRYIDCDR [ASPA_Y64_L69R]
Result string: 0.427

Query string: Give phosphorylation enrichment for TQFWLYFAGNL [SLC25A5_Y112]
Result string: 0.652

Query string: Give phosphorylation enrichment for FGRTFYNQANM [MCCC2_Y196_I200N]
Result string: 0.493

---

assayed_target: Fes (UniProt P07332)
Sequence (P07332 whole entry, looked up): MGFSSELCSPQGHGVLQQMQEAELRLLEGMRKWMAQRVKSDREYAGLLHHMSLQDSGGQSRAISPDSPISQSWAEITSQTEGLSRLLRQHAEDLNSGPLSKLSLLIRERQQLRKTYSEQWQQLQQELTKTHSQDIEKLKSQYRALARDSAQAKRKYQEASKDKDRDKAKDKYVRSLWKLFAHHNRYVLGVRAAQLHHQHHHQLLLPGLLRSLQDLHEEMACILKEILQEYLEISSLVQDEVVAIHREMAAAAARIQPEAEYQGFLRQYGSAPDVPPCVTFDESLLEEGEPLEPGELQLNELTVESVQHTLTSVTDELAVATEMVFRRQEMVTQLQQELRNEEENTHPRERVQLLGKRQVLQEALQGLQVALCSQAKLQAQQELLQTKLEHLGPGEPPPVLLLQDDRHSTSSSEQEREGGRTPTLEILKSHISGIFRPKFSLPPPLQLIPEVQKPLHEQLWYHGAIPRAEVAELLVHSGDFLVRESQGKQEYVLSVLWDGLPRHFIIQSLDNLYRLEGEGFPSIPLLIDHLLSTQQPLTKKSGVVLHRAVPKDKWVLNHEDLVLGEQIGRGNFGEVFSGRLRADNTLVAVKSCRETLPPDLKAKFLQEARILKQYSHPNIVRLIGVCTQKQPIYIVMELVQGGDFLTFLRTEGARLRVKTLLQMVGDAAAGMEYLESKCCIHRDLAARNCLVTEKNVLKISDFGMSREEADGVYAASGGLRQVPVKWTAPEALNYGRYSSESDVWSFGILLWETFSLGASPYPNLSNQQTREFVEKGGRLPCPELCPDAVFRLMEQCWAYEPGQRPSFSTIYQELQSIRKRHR
procedure_summary: phosphorylation enrichment, bacterial display (enrichment ratio); higher = better substrate or ligand; peptides without Tyr show the background
recorded_metric: phosphorylation enrichment
No unit in the answer, only the number.

TVHCDYLNIPH [TAF1L_Y1385] : 1.02

Query string: Give phosphorylation enrichment for AIIGIYNLRDD [CDH23_Y2949_I2950N]
Result string: 1

Query string: Give phosphorylation enrichment for GRQVIYTENER [GPR143_Y231_G229V]
Result string: 0.89

Query string: Give phosphorylation enrichment for LKETGYVVERP [BCLAF1_Y466]
Result string: 0.807

Query string: Give phosphorylation enrichment for SLNEVYTKNKT [MSH2_Y563_E562V]
Result string: 0.727

Query string: Give phosphorylation enrichment for RSGNCYLDIRP [FBN1_Y1535]
Result string: 1.27

Query string: Give phosphorylation enrichment for PSQRHYVFFFS [PTEN_Y174_R173H_YF]
Result string: 2.72

Query string: Give phosphorylation enrichment for SDVCMYRKNTY [SYNE2_Y570_I574T]
Result string: 0.905

---

assayed_target: Fyn (UniProt P06241)
Sequence (P06241 whole entry, looked up): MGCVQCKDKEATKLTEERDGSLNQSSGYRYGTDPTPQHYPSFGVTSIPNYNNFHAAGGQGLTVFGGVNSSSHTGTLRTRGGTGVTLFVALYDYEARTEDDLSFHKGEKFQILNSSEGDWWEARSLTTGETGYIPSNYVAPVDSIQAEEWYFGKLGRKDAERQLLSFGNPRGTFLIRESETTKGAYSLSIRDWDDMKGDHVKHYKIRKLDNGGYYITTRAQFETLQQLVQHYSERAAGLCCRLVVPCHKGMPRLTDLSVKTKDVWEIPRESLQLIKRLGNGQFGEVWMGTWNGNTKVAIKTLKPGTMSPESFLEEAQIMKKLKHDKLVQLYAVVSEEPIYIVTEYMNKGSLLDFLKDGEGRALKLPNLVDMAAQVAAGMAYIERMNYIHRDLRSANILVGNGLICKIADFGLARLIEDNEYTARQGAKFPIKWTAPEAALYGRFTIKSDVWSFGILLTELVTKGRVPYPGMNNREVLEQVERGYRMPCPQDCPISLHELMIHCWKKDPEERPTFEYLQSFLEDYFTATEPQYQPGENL
procedure_summary: phosphorylation enrichment, bacterial display (enrichment ratio); higher = better substrate or ligand; peptides without Tyr show the background
recorded_metric: phosphorylation enrichment
No unit in the answer, only the number.

Worked cases, answers included:
FAGRDYSLDEF [MYOF_Y1705_G1701A_YF] : 0.454
LRRREYQRQDF [PRKRIP1_Y90_YF] : 0.539
CLNAIYQNNLT [GSR_Y158_R153C] : 0.995
EWKNNYPRLRE [OPA1_Y582] : 0.422
YTGNTYRVGDT [FN1_Y106] : 0.441
DLDPNYVVSSR [CKM_Y125_L127V] : 0.45

Query string: State recorded phosphorylation enrichment with Fyn (UniProt P06241), entry KVGNEYVNKGQ [MYH7_Y410_T412N] , no comment.
Result string: 0.412

---

assayed_target: c-Src SH2
procedure_summary: SH2 binding enrichment of the phosphorylated peptide, bacterial display (enrichment ratio); higher = better substrate or ligand; peptides without Tyr show the background
Please note: Condition met applies when SH2 binding enrichment is 0.7 or greater, and Condition not met applies otherwise.

# example entries with known answers
IIEDPYYGNDF [ACP1_Y132_S137F] : Condition met
FEEDSYVTRSQ [RET_Y905_K907T_YF] : Condition not met
GIYEDYVEGLR [MYL6_Y89_T85I] : Condition not met
CTTIHYDFMCN [TP53_Y234_N235D_YF] : Condition met

Query string: Hello, I need to know if AMCVRYDGVEV [ADAMTSL2_Y594] has measured SH2 binding enrichment not below 0.7. Thanks!
Result string: Condition met

Query string: Hello, I need to know if ISKQEYDEAGP [ACTC1_Y364] has measured SH2 binding enrichment not below 0.7. Thanks!
Result string: Condition met

---

Test system: c-Abl (mouse)
procedure_summary: phosphorylation enrichment, bacterial display (enrichment ratio); higher = better substrate or ligand; peptides without Tyr show the background
recorded_metric: phosphorylation enrichment
No unit in the answer, only the number.

TVEDHYFEGGI [TKT_Y563_YF] : 0.798
CRIELYRIVES [IGFBP1_Y181_V183I] : 0.991

Query string: Give phosphorylation enrichment for CTTIHYDFMCN [TP53_Y234_N235D_YF]
Result string: 0.704

Query string: Give phosphorylation enrichment for KDQPDYKYQPR [SOX9_Y172_H169Q]
Result string: 0.519

Query string: Give phosphorylation enrichment for LTTEAYEWEPR [ELMOD3_Y61]
Result string: 0.831

Query string: Give phosphorylation enrichment for LYIDSYEKDVA [PGM1_Y521]
Result string: 0.45

Query string: Give phosphorylation enrichment for ELAVNYQEQAS [SLC9A9_Y591_I589V]
Result string: 0.66

Query string: Give phosphorylation enrichment for MSRNLYSGDCF [DDR2_Y736_Y740C_YF]
Result string: 0.739

---

Catalogue of sequences with associated phosphorylation enrichment
assayed_target: Hck (UniProt P08631)
Sequence (P08631 whole entry, looked up): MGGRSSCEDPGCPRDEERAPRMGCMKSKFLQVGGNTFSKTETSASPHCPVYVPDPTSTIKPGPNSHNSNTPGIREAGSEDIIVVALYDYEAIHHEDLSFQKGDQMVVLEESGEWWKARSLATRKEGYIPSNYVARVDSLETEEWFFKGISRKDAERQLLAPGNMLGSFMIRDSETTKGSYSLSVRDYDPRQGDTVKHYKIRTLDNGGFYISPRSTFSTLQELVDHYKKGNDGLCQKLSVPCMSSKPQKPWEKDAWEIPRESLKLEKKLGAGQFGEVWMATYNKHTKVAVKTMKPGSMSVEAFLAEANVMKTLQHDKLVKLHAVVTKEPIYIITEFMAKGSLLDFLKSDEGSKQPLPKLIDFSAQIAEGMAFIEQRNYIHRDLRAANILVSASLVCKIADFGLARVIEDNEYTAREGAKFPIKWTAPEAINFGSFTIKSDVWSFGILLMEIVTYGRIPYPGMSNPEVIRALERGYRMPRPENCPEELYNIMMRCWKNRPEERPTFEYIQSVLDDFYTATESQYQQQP
procedure_summary: phosphorylation enrichment, bacterial display (enrichment ratio); higher = better substrate or ligand; peptides without Tyr show the background

GRPLFYWLTGC [LYZL6_Y140] : 0.42

Query string: Give phosphorylation enrichment for VITTLYIGFLG [KCNQ1_Y267_L262V]
Result string: 1.32

Query string: Give phosphorylation enrichment for PELINYHQHFS [BTK_Y361_N365Y_YF]
Result string: 0.513

---

assayed_target: Grb2 SH2 (UniProt P62993)
Sequence (P62993 whole entry, looked up): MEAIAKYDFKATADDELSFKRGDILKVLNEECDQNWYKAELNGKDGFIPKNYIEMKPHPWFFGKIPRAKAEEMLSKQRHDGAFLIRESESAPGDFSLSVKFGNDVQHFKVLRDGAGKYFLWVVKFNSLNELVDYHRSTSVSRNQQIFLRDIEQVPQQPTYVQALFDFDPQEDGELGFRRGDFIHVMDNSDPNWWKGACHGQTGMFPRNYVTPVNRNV
procedure_summary: SH2 binding enrichment of the phosphorylated peptide, bacterial display (enrichment ratio); higher = better substrate or ligand; peptides without Tyr show the background
Please note: true applies when SH2 binding enrichment is 0.8 or greater, and false applies otherwise.

# example entries with known answers
GGSDCYGSLRP [MYLK_Y846_R845C] : false
SGIYQYNIAKF [FOXL2_Y83_I84N] : true
GIYEDYVEGLR [MYL6_Y89_T85I] : false
RHFVFYFSFLL [PTEN_Y177_R173H_YF] : true
SPPPAYTPMSG [ERBB4_Y1056] : true

Query string: Hello, I need to know if RRVEPYGENFN [APOA4_Y310] has measured SH2 binding enrichment not below 0.8. Thanks!
Result string: false

Query string: Hello, I need to know if LFMGDYVGRGY [PPP2CA_Y86_D88G] has measured SH2 binding enrichment not below 0.8. Thanks!
Result string: true

Query string: Hello, I need to know if RSDEDYLYREE [POR_Y573] has measured SH2 binding enrichment not below 0.8. Thanks!
Result string: false

Query string: Hello, I need to know if LLQEWYMIISR [HUWE1_Y4066_R4063Q] has measured SH2 binding enrichment not below 0.8. Thanks!
Result string: true

Query string: Hello, I need to know if LVMFIDAIFGM [SCN1A_Y1684_Y1684D] has measured SH2 binding enrichment not below 0.8. Thanks!
Result string: true

Query string: Hello, I need to know if CTTIHYNYMWN [TP53_Y234_C238W] has measured SH2 binding enrichment not below 0.8. Thanks!
Result string: true

---

System: AncSZ
procedure_summary: phosphorylation enrichment, bacterial display (enrichment ratio); higher = better substrate or ligand; peptides without Tyr show the background
Catalogue of sequences with associated phosphorylation enrichment
No unit in the answer, only the number.

KEKLCYVALDF [ACTA1_Y220] : 1.26

Let us move to another entry and its phosphorylation enrichment.
Query string: Give phosphorylation enrichment for FLNSIYKCRDE [ROS1_Y2227_S2229C]
Result string: 0.953

---

assayed_target: Grb2 SH2 (UniProt P62993)
procedure_summary: SH2 binding enrichment of the phosphorylated peptide, bacterial display (enrichment ratio); higher = better substrate or ligand; peptides without Tyr show the background
Classification by SH2 binding enrichment follows these ranges: zone 1: < 0.8; zone 2: ≥ 0.8 and < 0.9; zone 3: ≥ 0.9

LKLKAYRFSIS [LCT_Y974_V971L] : zone 1
AASHRYDLGGL [QPRT_Y162] : zone 2
ATARPYSPYII [LRP5_Y1528_R1529S] : zone 2
FCVDCYKNFVA [FHL1_Y213_YF] : zone 3
DLDFTYIYPNI [PTEN_Y27_L25F] : zone 1
NFRTIYVNANE [KCNH2_Y475_T474I] : zone 3
EREFKYGAHKF [OAT_Y50_N54K_YF] : zone 2
RRIHSYRGQLW [VHL_Y112_H115Q] : zone 1
MDDDQYALLTT [EFCAB6_Y675] : zone 2
PKFHSYVSLPF [PLXNA2_Y293] : zone 3

Query string: Assign a category based on measured SH2 binding enrichment for PEVSGYCHYAD [TG_Y234_C237Y] and give only the class name.
Result string: zone 1

Query string: Assign a category based on measured SH2 binding enrichment for CTTIHHNFMCN [TP53_Y234_Y234H_YF] and give only the class name.
Result string: zone 3

Query string: Assign a category based on measured SH2 binding enrichment for MAFDRYVAVCA [OR52J3_Y125] and give only the class name.
Result string: zone 1

Query string: Assign a category based on measured SH2 binding enrichment for VILENYGADID [DNAH5_Y596_L591V] and give only the class name.
Result string: zone 1

Query string: Assign a category based on measured SH2 binding enrichment for EQKKFYNAMKK [SCN5A_Y1495_YF] and give only the class name.
Result string: zone 3

Query string: Assign a category based on measured SH2 binding enrichment for KYACSYTPVKA [FLNB_Y708_T703K] and give only the class name.
Result string: zone 3
